Give measured TGI for each item. Keep answers brief.
- Test system: IGROV1 ovarian
- method summary: NCI tumour cell line growth inhibition, 48 h

The examples below pair each entry with its known result.
mol	TGI
C(=C\c1cc(-c2ccc3ccccc3n2)nc2ccc3ccccc3c12)/c1ccc2ccccc2n1	> 100 µM
N#C/C(=C\c1ccc(Br)cc1)n1nnc2ccccc21	1.43 µM
CC(C)Nc1ncc2cc(Oc3ccc(F)cc3F)c(=O)n(C)c2n1	> 25 µM

In the following, a different molecule is considered.
(Q) Would you please give the reported TGI of O=[N+]([O-])c1c2nc3n(c2cc2c1nc1n2CCC1)CCC3 with IGROV1 ovarian?
(A) > 100 µM

* * *

- Tested on: OVCAR-5 ovarian
- method summary: NCI tumour cell line growth inhibition, 48 h
Record form. Attribute: TGI. Fill in for each entry.

For each listed entry, give its TGI.
1. C=CCN(c1cc(OC)c2[nH]cc(C)c2c1[N+](=O)[O-])S(C)(=O)=O
2. COc1ccc2c(c1)/C(=N/OC(C)=O)c1c-2c(=O)[nH]c2ccccc12

(A)
> 100 µM
24.5 µM

Answer for every listed entry: what is its TGI? The entries follow.
1. CC(=O)O[C@H]1[C@@H](OC(C)=O)C(C)(C)/C=C/[C@H](C)C(=O)[C@@]2(OC(C)=O)C[C@@](C)(OC(C)=O)[C@H](OC(C)=O)[C@@H]2[C@H]2OC(=O)CC[C@@]2(OC(=O)c2ccccc2)[C@@H]1OCC(C)C
2. C=C(C(=O)OC)c1cc2ccccc2n1S(=O)(=O)c1ccccc1
3. O=c1c2ccccc2nc(-c2cccc(Cl)c2)n1NCC1(O)OCC(O)C(O)C1O (configuration not stated)
4. COC(=O)[C@H](Cc1ccccc1)NP(=O)(O)OCC1C=CC(n2cc(C)c(=O)[nH]c2=O)O1 (some centres not stated)
5. CC(NC(C#N)CC12CC3CC(CC(C3)C1)C2)c1ccccc1 (configuration not stated)

(A)
1: > 100 µM; 2: 21.7 µM; 3: > 100 µM; 4: > 100 µM; 5: > 100 µM

* * *

- System: HOP-18 NSCLC
- method summary: NCI tumour cell line growth inhibition, 48 h
What TGI was measured for each of the following?

# example entries with known answers
compound	study system	observed result
CC(=O)/C=C/c1ccc(C)cc1	HOP-18 NSCLC	> 100 µM
COc1cc2c(c(OC)c1OC)-c1ccc(OC)c(=O)cc1[C@@H](N(C)C=O)CC2	HOP-18 NSCLC	> 100 µM
CCN(CC)CCCC(C)NC(=O)c1ccc2c(c1)C(=O)c1ccccc1C2=O (stereo not given)	HOP-18 NSCLC	> 100 µM
NNC(=O)/C(NC(=O)c1ccccc1)=C(\N)c1ccc(Cl)cc1	HOP-18 NSCLC	> 100 µM
C=C1C(=O)O[C@@H]2[C@H](O)[C@@H](C)[C@@H]3C=CC(=O)[C@@]3(C)[C@H](OC(=O)C=C(C)C)[C@H]12	HOP-18 NSCLC	3.09 µM

Here are 5 compounds. What values of TGI were reported for them?
1. COc1cc(/C=C(\OC(C)=O)c2ccc3c(c2)OCO3)cc(OC)c1OC
2. C=CCn1cc(C(=O)NC(=O)NCCCCCOC(=O)CCCCCCCCCCC(=O)OCCCCCNC(=O)NC(=O)c2cn(CC=C)c(=O)n(C)c2=O)c(=O)n(C)c1=O
3. CC(C)C(=O)/C=C/c1ccc(Cl)c(Cl)c1
4. CS(=O)(=O)OCCCOS(C)(=O)=O
5. CCOC(=O)/C(=C\c1ccc[nH]1)C(=O)c1ccccc1

(A)
["> 100 µM", "> 100 µM", "23.5 µM", "> 100 µM", "> 100 µM"]

* * *

- Tested on: MDA-MB-231 breast
- method summary: NCI tumour cell line growth inhibition, 48 h
measurement label: TGI

Some compounds with recorded TGI:
compound	measurement label	observed result
Cc1ccc(S(=O)(=O)N2CCNCCN(S(=O)(=O)c3ccc(C)cc3)CCN(S(=O)(=O)c3ccc(C)cc3)CC2)cc1	TGI	> 100 µM
NC1CC(=O)c2sccc21 (centres undefined)	TGI	> 100 µM
c1ccc(-c2cc(-c3cccs3)c(-c3cccs3)o2)cc1	TGI	> 100 µM
CCc1nc2ccc(C(F)(F)F)cc2[nH]c1=O	TGI	> 100 µM
Nc1ncnc2c1cnn2Cc1ccc(Cl)cc1	TGI	> 100 µM

Field: TGI. Fill in for each record below.
1. COc1ccc(OC)c2c(=S)c3ccccc3[nH]c12
2. O=[N+]([O-])c1c2nc3n(c2cc2c1nc1n2CCC1)CCC3
3. O=C1ON=C2C3CC4CC12CC1(C3)C(=O)ON=C41

(A)
["> 100 µM", "> 100 µM", "> 100 µM"]

(Q) Consider the compound C(=C\c1cc(-c2ccc3ccccc3n2)nc2ccc3ccccc3c12)/c1ccc2ccccc2n1 and give its recorded TGI.
(A) > 100 µM

* * *

- System: HOP-92 NSCLC
- method summary: NCI tumour cell line growth inhibition, 48 h
measurement label: TGI

Worked cases, TGI given:
molecule	observed result
NC1CC(=O)c2sccc21 (configuration not stated)	> 100 µM
c1ccc2nc(CCC3CCCCN3)ccc2c1 (configuration not stated)	> 100 µM
Cc1ccc(C(=O)Nc2ccc(S(=O)(=O)O)c3cc(S(=O)(=O)O)cc(S(=O)(=O)O)c23)cc1NC(=O)c1cccc(NC(=O)Nc2cccc(C(=O)Nc3cc(C(=O)Nc4ccc(S(=O)(=O)O)c5cc(S(=O)(=O)O)cc(S(=O)(=O)O)c45)ccc3C)c2)c1 (tested in a mixture with another compound)	> 50 µM

Respectfully, I request TGI for each entry included below.
1. CC1C(=O)O[C@H]2C1CC[C@@]1(C)[C@H](O)CC[C@@]13C[C@]2(O)OO3 (some centres not stated)
2. CCCCCCC(C)OC(=O)/C=C(\CC(=O)OC(C)CCCCCC)C(=O)OC(C)CCCCCC (configuration not stated)
3. NC(=O)CC(N=C1C(=O)OC(C(O)CO)C1=NC(CC(N)=O)C(=O)O)C(=O)O (configuration not stated)
4. NC1(C(=O)O)CCCC1

(A)
1. > 100 µM
2. > 100 µM
3. > 100 µM
4. > 625 µM

Quick request: TGI for each listed item, please.
1. CC(C)c1ccc(NC(=S)NC(=O)c2ccccc2)cc1
2. CSc1ncnc2c1CCN2
3. C=C(C)[C@@H]1CCC2=C[C@H](CC(C)=CC3=CC(C)=C(O3)[C@@H]1OC)OC2=O
4. O=[N+]([O-])c1c2nc3n(c2cc2c1nc1n2CCC1)CCC3
5. C#CC(O)/C=C/C(O)CCCC(O)CC#CC(O)C#CC(O)CCCC(O)/C=C/CCCC(=O)CCCCCCCCCCCCCCCC(O)C(O)C#CC(=O)O (configuration not stated)

(A)
["> 100 µM", "> 100 µM", "> 100 µM", "> 100 µM", "> 50 µM"]

* * *

Give measured TGI for each item. Keep answers brief.
- Tested on: SF-268 CNS
- method summary: NCI tumour cell line growth inhibition, 48 h

Some compounds with recorded TGI:
compound	TGI
O=C(c1ccc(Cl)cc1)c1ccc(OCCSCCCCCCCCCCSCCOc2ccc(C(=O)c3ccc(Cl)cc3)cc2)cc1	> 100 µM
C#CC(O)/C=C/C(O)CCCC(O)CC#CC(O)C#CC(O)CCCC(O)/C=C/CCCC(=O)CCCCCCCCCCCCCCCC(O)C(O)C#CC(=O)O (stereo not drawn)	> 50 µM
O=[N+]([O-])c1ccc2c(c1)c(S(=O)(=O)O)cc1nonc12	> 100 µM
CC(NC(C#N)CC12CC3CC(CC(C3)C1)C2)c1ccccc1 (stereo not drawn)	> 100 µM
CC1CCc2sc3[nH]c(=S)n(-c4ccccc4)c(=O)c3c2C1 (stereo not drawn)	> 100 µM

Dear reader, for each entry below, please note its TGI.
1. NS(=O)(=O)c1nnc(NS(=O)(=O)c2ccccc2C(=O)O)s1
2. COc1ccc(-c2csc(NC(=O)c3cc(O)c(O)c(O)c3)n2)cc1
3. Cc1ccc2c(c1)CNc1ccc(C)cc1CN2

(A)
1. > 100 µM
2. > 33.3 µM
3. > 100 µM

* * *

For each entry below, report its TGI value.
- Test system: MDA-N
- method summary: NCI tumour cell line growth inhibition, 48 h
Answers are plain numbers, in µM.

molecule	observed result
Oc1ccc(O)c(CNc2ccccc2)c1	16.6
CC(=O)N1c2ccccc2C(C)C1c1[nH]c2ccccc2c1C (stereo not given)	50.6
Nc1ccc(Oc2ccc(C34CC5CC6C3CC3CC4C(C5)C6(c4ccc(Oc5ccc(N)c(O)c5)cc4)C3)cc2)cc1O	14.8
CC(=O)Oc1ccc(/C=C/C(=O)O[C@H]2CCCC[C@@H]2OC(=O)/C=C/c2ccc(OC(C)=O)c(OC(C)=O)c2)cc1OC(C)=O	27.5
CC1(C)CC(Nc2ccc(Nc3ccccc3)cc2)CC(C)(C)N1	32.7

(Q) Fill: TGI (MDA-N) for this molecule CCN1CCC(O)(c2ccc(Oc3ccc(C)cc3)cc2)C(C(=O)c2ccc(Oc3ccc(C)cc3)cc2)C1 (stereo not given)
(A) 22.6
